System: HL-1
Assay: relative cell viability (CellTiter-Glo) vs DMSO control (% of DMSO control); higher = more viable cells
Conditions: oxygen condition: normoxia 72 h; 5000 nM
Structures can show the parent of a compound that is named as a salt.
TEST_READOUT: relative cell viability
Output spec: single numeric token, no unit.

Consider the worked cases shown below.
[[record]]
compound = "OC1(c2ccc(Cl)c(C(F)(F)F)c2)CCN(CCCC(c2ccc(F)cc2)c2ccc(F)cc2)CC1"
test_readout = "relative cell viability"
result_value = 120

[[record]]
compound = "CCOc1cc(CC(=O)N[C@@H](CC(C)C)c2ccccc2N2CCCCC2)ccc1C(=O)O [Repaglinide]"
test_readout = "relative cell viability"
result_value = 115

[[record]]
compound = "CNCCCC12CCC(c3ccccc31)c1ccccc12 [Maprotiline hydrochloride]"
test_readout = "relative cell viability"
result_value = 87.7


Now for the compound whose relative cell viability we want.
Item: CC[C@@H]1C(=O)OC[C@@H]1Cc1cncn1C [Pilocarpine HCl] | relative cell viability: 119

====

Below, each entry is listed alongside its reported relative cell viability.
Test system: HL-1
Assay: relative cell viability (CellTiter-Glo) vs DMSO control (% of DMSO control); higher = more viable cells
Details: oxygen condition: normoxia 72 h; 1000 nM
// print number alone

Past entries and their recorded results:
[[record]]
molecule = "COc1cc2ncnc(Nc3ccc(F)c(Cl)c3)c2cc1OCCCN1CCOCC1"
test_readout = "relative cell viability"
result_value = 99.4

[[record]]
molecule = "NC(CO)C(=O)NNCc1ccc(O)c(O)c1O (stereo unspecified) [Benserazide]"
test_readout = "relative cell viability"
result_value = 102

[[record]]
molecule = "C=C1CC[C@H](O)C/C1=C/C=C1\\CCC[C@]2(C)[C@@H]([C@H](C)CCCC(C)C)CC[C@@H]12"
test_readout = "relative cell viability"
result_value = 66.2

[[record]]
molecule = "C[C@H](CCC(=O)O)[C@H]1CC[C@H]2[C@@H]3CC[C@@H]4C[C@H](O)CC[C@]4(C)[C@H]3CC[C@]12C"
test_readout = "relative cell viability"
result_value = 105


Proceeding to the next molecule to report its relative cell viability.
Lab note: COCCCOc1cc(C[C@@H](C[C@H](N)[C@@H](O)C[C@H](C(=O)NCC(C)(C)C(N)=O)C(C)C)C(C)C)ccc1OC [Aliskiren hemifumarate] gave relative cell viability of 101

====

Test system: HL-1
Assay: relative cell viability (CellTiter-Glo) vs DMSO control (% of DMSO control); higher = more viable cells
Details: oxygen condition: hypoxia 48 h (1% O2) + reoxygenation 24 h; 5000 nM
Structures can show the parent of a compound that is named as a salt.
The entries below come with measured relative cell viability values attached.
# respond with the number and nothing more

[[record]]
compound = "C[C@@H](CN1CC(=O)NC(=O)C1)N1CC(=O)NC(=O)C1 [Dexrazoxane Hydrochloride]"
test_readout = "relative cell viability"
result_value = 106


Per the record, CS(=O)(=O)CCNCc1ccc(-c2ccc3ncnc(Nc4ccc(OCc5cccc(F)c5)c(Cl)c4)c3c2)o1 [Lapatinib] has relative cell viability of 104

Recorded result, CC(=O)/N=c1/sc(S(N)(=O)=O)nn1C [Methazolamide] , relative cell viability: 109

For CCOC(=O)[C@H](CCc1ccccc1)N[C@H]1CCc2ccccc2N(CC(=O)O)C1=O [Benazepril hydrochloride] the compound record lists relative cell viability as 109

The measured values listed here are drawn from the supplement of paper PMC8371130.
